# test-target: purified HLA-B*57:01 (Homo sapiens, UniProt P01889, D201E/D98Y/E176V/E187L/E204Q/E69M/E70A/G107R/I90N/K202T/L105A/L119I/N104I/N87E/Q89R/Q94S/R106L/R155S/R180L/R86G/S101N/S121V/S35A/S48A/T118I/V36M/Y140S/Y91M)
# assay-name: HLA binding assay: inhibition of binding of a radiolabeled standard peptide to purified HLA-B*57:01 (competition)
# reported-conditions: vehicle; Mean ± SEM; S5 Fig; unit inferred; read-out: IC-50 for HLA-B*57:01, vehicle
pIC50: −log10 of the molar value. Ends that are not written are not given here.
measured-property: pIC50

polymer_sequence=RARQLNYTI measured_property=pIC50 numeric_readout=7.86

Values compiled from paper PMC4449000.
